System: 168753-222-R-J1-PDC complex spheroid viability
Assay: Anticancer human tumor 168753-222-R-J1-PDC patient-derived bladder carcinoma cell line growth inhibition [CLK]
Conditions: second compound 1 µM; first compound 10 µM; hits give low values
Recorded endpoint: viability, T/C (%)

Molecule	Data value
Nc1ccccc1NC(=O)c1ccc(CNC(=O)OCc2cccnc2)cc1 + CNC(=O)c1ccc(Nc2nc(OC3CCCC3)c3c(-c4ccc5nc(C)oc5c4)c[nH]c3n2)c(OC)c1	4.99
C=CC(=O)N1CCN(c2nc(=O)n(-c3c(C)ccnc3C(C)C)c3nc(-c4c(O)cccc4F)c(F)cc23)C(C)C1 (centres undefined) + CNC(=O)c1ccc(Nc2nc(OC3CCCC3)c3c(-c4ccc5nc(C)oc5c4)c[nH]c3n2)c(OC)c1	30.9
CC(=O)O[C@H]1C(=O)[C@@]2(C)[C@H]([C@H](OC(=O)c3ccccc3)[C@]3(O)C[C@H](OC(=O)[C@H](O)[C@@H](NC(=O)c4ccccc4)c4ccccc4)C(C)=C1C3(C)C)[C@]1(OC(C)=O)CO[C@@H]1C[C@@H]2O + CNC(=O)c1ccc(Nc2nc(OC3CCCC3)c3c(-c4ccc5nc(C)oc5c4)c[nH]c3n2)c(OC)c1	62.7
O=C(c1cc(Cc2n[nH]c(=O)c3ccccc23)ccc1F)N1CCN(C(=O)C2CC2)CC1 + CN1CCN(c2cc(C(=O)Nc3cc4cc(-c5cnn(C)c5)ccc4cn3)ccn2)CC1	0.35

---

Tested on: 168753-222-R-J1-PDC complex spheroid viability
Experiment: Anticancer human tumor 168753-222-R-J1-PDC cell line growth inhibition [CLK];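 further: luminescence signal used as surrogate for viable cell amount; viability measured after seven days of drug exposure; 100% = DMSO vehicle control wells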
Details: second compound 0.1 µM; first compound 0.003 µM; hits give low values
Each entry below carries its recorded viability, T/C.
Recorded endpoint: viability, T/C (%)

Molecule	Recorded endpoint	Data value
C=CC(=O)Nc1cc(Nc2nccc(-c3cn(C)c4ccccc34)n2)c(OC)cc1N(C)CCN(C)C + CNC(=O)c1ccc(Nc2nc(OC3CCCC3)c3c(-c4ccc5nc(C)oc5c4)c[nH]c3n2)c(OC)c1	viability, T/C	87
CC(C)CC(NC(=O)C(Cc1ccccc1)NC(=O)c1cnccn1)B(O)O (centres undefined) + CN1CCN(c2cc(C(=O)Nc3cc4cc(-c5cnn(C)c5)ccc4cn3)ccn2)CC1	viability, T/C	20.9
CC(C)CC(NC(=O)C(Cc1ccccc1)NC(=O)c1cnccn1)B(O)O (centres undefined) + CNC(=O)c1ccc(Nc2nc(OC3CCCC3)c3c(-c4ccc5nc(C)oc5c4)c[nH]c3n2)c(OC)c1	viability, T/C	38.4
C=CC(=O)Nc1cc(Nc2nccc(-c3cn(C)c4ccccc34)n2)c(OC)cc1N(C)CCN(C)C + CN1CCN(c2cc(C(=O)Nc3cc4cc(-c5cnn(C)c5)ccc4cn3)ccn2)CC1	viability, T/C	71.8

---

Tested on: 168753-222-R-J1-PDC complex spheroid viability
Assay: Anticancer human tumor 168753-222-R-J1-PDC cell line growth inhibition [CLK]; active = viability on the fitted dose curve at most 10% of control; inactive = the rest;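 further: luminescence signal used as surrogate for viable cell amount; viability measured after seven days of drug exposure; 100% = DMSO vehicle control wells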
Details: second compound 0.1 µM; first compound 1 µM
Outcome codes: True for active, False for inactive

Molecule	Category
CC(=O)O[C@H]1C(=O)[C@@]2(C)[C@H]([C@H](OC(=O)c3ccccc3)[C@]3(O)C[C@H](OC(=O)[C@H](O)[C@@H](NC(=O)c4ccccc4)c4ccccc4)C(C)=C1C3(C)C)[C@]1(OC(C)=O)CO[C@@H]1C[C@@H]2O + CNC(=O)c1ccc(Nc2nc(OC3CCCC3)c3c(-c4ccc5nc(C)oc5c4)c[nH]c3n2)c(OC)c1	False
C=CC(=O)N1CCN(c2nc(=O)n(-c3c(C)ccnc3C(C)C)c3nc(-c4c(O)cccc4F)c(F)cc23)C(C)C1 (stereo not given) + CN1CCN(c2cc(C(=O)Nc3cc4cc(-c5cnn(C)c5)ccc4cn3)ccn2)CC1	False
C#Cc1c(F)ccc2cc(O)cc(-c3ncc4c(N5CC6CCC(C5)N6)nc(OCC56CCCN5CC(F)C6)nc4c3F)c12 (stereo not given) + CNC(=O)c1ccc(Nc2nc(OC3CCCC3)c3c(-c4ccc5nc(C)oc5c4)c[nH]c3n2)c(OC)c1	False
CCc1c2c(nc3ccc(O)cc13)-c1cc3c(c(=O)n1C2)COC(=O)[C@]3(O)CC + CN1CCN(c2cc(C(=O)Nc3cc4cc(-c5cnn(C)c5)ccc4cn3)ccn2)CC1	True
C=C(F)C(=O)N1CCN(c2nc(OCC3CCCN3C)nc3c2CCN(c2cccc4cccc(Cl)c24)C3)CC1CC#N (stereo not given) + CN1CCN(c2cc(C(=O)Nc3cc4cc(-c5cnn(C)c5)ccc4cn3)ccn2)CC1	False
